Give inhibition at 10 µM for every item shown.
Target: PRMT4 (Homo sapiens, UniProt Q86X55)
Sequence (Q86X55 whole entry, species assumed): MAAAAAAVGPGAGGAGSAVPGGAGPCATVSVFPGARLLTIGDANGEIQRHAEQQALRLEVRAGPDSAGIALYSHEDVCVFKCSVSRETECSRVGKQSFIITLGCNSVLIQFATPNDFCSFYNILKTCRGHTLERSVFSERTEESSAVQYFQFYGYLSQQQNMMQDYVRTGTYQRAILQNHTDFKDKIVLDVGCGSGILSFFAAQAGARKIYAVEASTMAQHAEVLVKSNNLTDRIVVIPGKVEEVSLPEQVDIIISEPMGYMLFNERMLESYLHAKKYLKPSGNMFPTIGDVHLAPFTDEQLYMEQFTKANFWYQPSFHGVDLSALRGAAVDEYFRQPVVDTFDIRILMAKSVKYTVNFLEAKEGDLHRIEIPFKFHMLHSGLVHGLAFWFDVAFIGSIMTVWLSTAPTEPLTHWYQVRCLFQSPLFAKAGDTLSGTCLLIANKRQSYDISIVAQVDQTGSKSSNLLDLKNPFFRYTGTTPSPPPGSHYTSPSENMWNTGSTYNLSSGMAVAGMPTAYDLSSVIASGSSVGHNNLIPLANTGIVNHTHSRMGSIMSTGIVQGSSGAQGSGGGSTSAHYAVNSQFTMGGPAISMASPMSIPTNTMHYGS
Experiment: radioactive assay (Reaction Biology Corp.), inhibition of PRMT4
Format: biochemical
Record the value in %, omitting the unit from your answer.

What the record says about COc1cc2nc(-c3ccoc3)nc(NCCSC[C@H]3O[C@@H](n4cnc5c(N)ncnc54)[C@H](O)[C@@H]3O)c2cc1OC [Compound 12d] : inhibition at 10 µM is 1

What the record says about N=C(NCCSC[C@H]1O[C@@H](n2cnc3c(N)ncnc32)[C@H](O)[C@@H]1O)Nc1cccc(-c2ccc(Cl)cc2)c1 : inhibition at 10 µM is 100

What the record says about N=C(NCCCSC[C@H]1O[C@@H](n2cnc3c(N)ncnc32)[C@H](O)[C@@H]1O)Nc1cccc(-c2ccoc2)c1 : inhibition at 10 µM is 100

What the record says about Nc1ncnc2c1ncn2[C@@H]1O[C@H](CSCCOc2ccc(-c3ccc(O)cc3)cc2)[C@@H](O)[C@H]1O [Compound 14b] : inhibition at 10 µM is 13

What the record says about N=C(NCCCSC[C@H]1O[C@@H](n2cnc3c(NCCCc4ccccc4)ncnc32)[C@H](O)[C@@H]1O)Nc1ccccc1 [Compound 19j] : inhibition at 10 µM is 54

What the record says about Nc1ncnc2c1ncn2[C@@H]1O[C@H](CSCCOc2ccc(-c3ccc(F)c(O)c3)cc2)[C@@H](O)[C@H]1O [Compound 14d] : inhibition at 10 µM is 51
